# Test system: Akkermansia muciniphila
# experimental.protocol: growth AUC relative to DMSO control (median of replicates) (fraction); higher = more growth (less inhibition), active = hit call of the paper
# condition.set: 20 µM; 24 h
The following molecules are listed with their measured growth AUC values.
Reply briefly: the number, and no unit.

For the molecule shown here, Cc1nnc(-c2ccccc2)c(=O)n1N , give the reported growth AUC.
0.94

====

# Test system: Bacteroides dorei
# experimental.protocol: growth AUC relative to DMSO control (median of replicates) (fraction); higher = more growth (less inhibition), active = hit call of the paper
# condition.set: 20 µM; 24 h
recorded.endpoint: growth AUC
Reply briefly: the number, and no unit.

Solved cases below.
molecule	test.system	growth AUC
CCNc1nc(NC(C)(C)C)nc(SC)n1	Bacteroides dorei	0.871
CCCCCCCCn1sccc1=O	Bacteroides dorei	0.912
COCCOC(=O)C(C#N)(C(=O)c1ccccc1C(F)(F)F)c1ccc(C(C)(C)C)cc1 (stereo not drawn)	Bacteroides dorei	0.927
COP(=S)(OC)Oc1cc(Cl)c(Br)cc1Cl	Bacteroides dorei	0.995
CCCN(CCC)N=O	Bacteroides dorei	1

For the molecule shown here, CC(Oc1cc(Cl)c(Cl)cc1Cl)C(=O)O (stereo not drawn) , give the reported growth AUC.
0.979

For the molecule shown here, CCOc1cc(Oc2ccc(C(F)(F)F)cc2Cl)ccc1[N+](=O)[O-] , give the reported growth AUC.
0.917

For the molecule shown here, COc1ccccc1N , give the reported growth AUC.
1.01

For the molecule shown here, CCN(CC)C(=O)C(C)Oc1cccc2ccccc12 (stereo not drawn) , give the reported growth AUC.
0.981

For the molecule shown here, COC(=O)COc1ccc(Cl)cc1Cl , give the reported growth AUC.
0.969

For the molecule shown here, CNc1cnn(-c2cccc(C(F)(F)F)c2)c(=O)c1Cl , give the reported growth AUC.
1.01

For the molecule shown here, Clc1ccc(C(c2ccc(Cl)cc2)C(Cl)(Cl)Cl)cc1 , give the reported growth AUC.
0.955

For the molecule shown here, CCCCCCCCCc1ccc(O)cc1 , give the reported growth AUC.
1.01
